The measured values listed here are drawn from patent US20240116985A1.

Target: T1, full-length beta-Catenin (Uniprot ID P35222) (Homo sapiens (Human), UniProt P35222 1-781)
T1 construct: Used full-length in the FP and AlphaScreen assays; also called B-Catenin; bCat
T1 sequence: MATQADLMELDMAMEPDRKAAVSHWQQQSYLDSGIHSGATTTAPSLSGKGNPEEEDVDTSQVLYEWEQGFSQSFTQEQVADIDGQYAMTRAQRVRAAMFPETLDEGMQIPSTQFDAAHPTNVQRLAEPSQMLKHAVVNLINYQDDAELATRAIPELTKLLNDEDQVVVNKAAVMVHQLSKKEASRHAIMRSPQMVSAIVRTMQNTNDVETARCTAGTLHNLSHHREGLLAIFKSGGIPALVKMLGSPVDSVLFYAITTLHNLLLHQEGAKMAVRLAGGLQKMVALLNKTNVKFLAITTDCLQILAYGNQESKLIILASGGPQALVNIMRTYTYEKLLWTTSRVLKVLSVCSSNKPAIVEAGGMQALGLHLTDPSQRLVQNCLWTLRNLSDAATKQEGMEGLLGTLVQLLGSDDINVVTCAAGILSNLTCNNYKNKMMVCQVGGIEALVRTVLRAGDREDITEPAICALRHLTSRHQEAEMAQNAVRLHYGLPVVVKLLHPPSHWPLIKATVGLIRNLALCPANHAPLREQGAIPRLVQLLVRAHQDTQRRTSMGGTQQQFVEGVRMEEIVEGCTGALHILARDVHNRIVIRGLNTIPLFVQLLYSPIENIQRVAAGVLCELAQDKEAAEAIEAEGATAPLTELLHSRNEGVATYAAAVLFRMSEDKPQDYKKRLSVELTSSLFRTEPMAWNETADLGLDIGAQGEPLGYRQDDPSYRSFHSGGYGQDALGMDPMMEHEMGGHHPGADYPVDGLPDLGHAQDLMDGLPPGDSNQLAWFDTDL
Test: AlphaScreen (nickel chelate) competition; full-length beta-catenin + biotin-TCF4(10-53) probe as competitor; peptide titrated
Starred links: 1 amine or outer side, 2 acyl side, 3 side chain; linkers in the order of their positions; H or OH if unused. Positions of bridges follow the written chain, without caps; N, C: chain ends. Non-standard residues stand in square brackets, D forms with d. Primed or numbered codes have the meaning given here. B5(4) = 2,2-bis(4-pentenyl)glycine = 2-amino-2-(pent-4-en-1-yl)hept-6-enoic acid (stitching residue), C=CCCCC(CCCC=C)(N[*:1])C(=O)[*:2]; B5(5) = 2,2-bis(4-pentenyl)glycine, 2-amino-2-(pent-4-en-1-yl)hept-6-enoic acid (stitching residue), C=CCCCC(CCCC=C)(N[*:1])C(=O)[*:2]; SeN = (S)-5-(((allyloxy)carbonyl)(methyl)amino)-2-amino-2-methylpentanoic acid, C=CCOC(=O)N(C)CCC[C@](C)(N[*:1])C(=O)[*:2]; B5(19) = 2-amino-2-(pent-4-en-1-yl)hept-6-enoic acid (bis(4-pentenyl)glycine), C=CCCCC(CCCC=C)(N[*:1])C(=O)[*:2]; αAllylPro = C=CC[C@@]1(C(=O)O)CCCN1; hPhe = N[C@@H](CCc1ccccc1)C(=O)O; S8 = C=CCCCCCC[C@](C)(N)C(=O)O
Collected EC50 values appear next to each entry.
Kindly answer with a numeric value in nM, unit omitted.

Solved cases (2 shown):
* Ac-[αAllylPro]DI[B5(5)]DDAAFQ[SeN]FWH-NH2 (staple 1-4, 4-11; not fully specified; printed as Ac-PL3-Asp-Ile-B5-Asp-Asp-Ala-Ala-Phe-Gln-SeN-Phe-Trp-His-NH2, Stapled peptide composition) [I-188] | 156
* Ac-[αAllylPro]DA[B5(4)][hPhe]EAAFV[S8]FWQ-NH2 (staple 1-4, 4-11, Stapled peptide composition; this is the later-eluting isomer composition) [I-197] | 6140

Prompt line: For the binder Ac-[αAllylPro]DI[B5(19)]DEAAFQ[S8]FWA-NH2 (staple 1-4, 4-11, Stapled peptide composition) [I-194] , what EC50 is on record?
Response line: 105
